# Test system: NCI/ADR-RES ovarian
# experiment-notes: NCI tumour cell line growth inhibition, 48 h
readout-name: TGI

molecule	result
C/C(=N\N=C(\[Se])N1CCN(c2ccccn2)CC1)c1ccccn1	18.6 µM

What value of measured TGI is listed for "COc1cc(C=C2N=C(c3ccccc3)N(n3c(-c4ccccc4)nc4ccccc4c3=O)C2=O)cc(OC)c1OC" ? > 100 µM

Lookup OCC1OC(OCC(O)C(O)C(O)C(/C=N/Nc2ccccc2)=N/Nc2ccccc2)C(O)C(O)C1O (stereo unspecified) > 100 µM

Lookup "O=c1cc(N2CCNCC2)oc2c(-c3ccccc3)cccc12" > 100 µM

Lookup "Cc1ccc(Nc2n[nH]c(=S)s2)cc1" > 100 µM

Lookup "CCN1C(NN)=NS(=O)(=O)c2ccccc21" > 100 µM

Lookup Cc1nn(C(=O)c2ccc(Cl)cc2)c2c1C(c1cccc([N+](=O)[O-])c1)SC(N)=N2 (stereo unspecified) > 10 µM

Lookup "Cc1cccc2c(N)c3cccc(C(=O)NCC[N+](C)(C)Cc4sccc4[N+](=O)[O-])c3nc12" > 100 µM

Lookup "O=C1/C(=C/c2ccc(Cl)cc2)N=C(c2ccccc2)N1c1nc2ccccc2s1" > 100 µM

Lookup "O=C1c2ccccc2-c2c1c(-c1ccc([N+](=O)[O-])cc1)nc1ccc3ccccc3c21" > 100 µM

Lookup CCC1CN2CCC1CC2 (stereo unspecified) > 100 µM

Lookup COC1CCC(O)C(/C=C/[N+](=O)[O-])C1 (stereo unspecified) 75.1 µM

Lookup "CC(=O)OC/C=C/Cn1ncc(=O)[nH]c1=O" > 100 µM

Lookup "CO/N=C(\C)c1cccc(Nc2cc(-c3ccccc3)nc3c(O)cccc23)c1" 13.5 µM

Lookup "O=C(Nc1cccc(Oc2nnc(Cl)c3ccccc23)c1)Nc1ccc(Cl)c(C(F)(F)F)c1" 9.95 µM

Lookup "ClCCN1CCOC1=Nc1ccc2c(c1)CCCC2" 51.9 µM

Lookup "O=C(CSC(c1ccccc1)c1ccccc1)N/N=C/c1cccc(Cl)c1" 31.8 µM

Lookup "CCn1c(-c2ccc(F)cc2)nc2c1C(=O)c1ccccc1C2=O" > 100 µM

Lookup CCN1C(=O)NC(=O)C(C)(N2C(=O)c3c(F)c(F)c(F)c(F)c3C2=O)C1=O (stereo unspecified) 18.2 µM

---

Here the recorded TGI is given for each entry.
# System: SK-MEL-28 melanoma
# experiment-notes: NCI tumour cell line growth inhibition, 48 h

These solved cases illustrate the format of a correct answer.
compound	readout-name	result
CCC(=O)N1NC(=O)C(CC)(CC)C1=O	TGI	> 100 µM
N#Cc1c(NCCc2ccc(F)cc2)c2ccccc2n2c1nc1ccccc12	TGI	> 100 µM
NCCCCN(CCCN)C(=O)c1ccccc1	TGI	> 100 µM

Next up:
What value of measured TGI is listed for "O=C(CN1CCN(c2ccc(Cl)cc2)CC1)N1CCN(c2nnc(-c3ccc(Cl)cc3)c(-c3ccc(Cl)cc3)n2)CC1" ? > 100 µM

---

# Test system: DU-145 prostate
# experiment-notes: NCI tumour cell line growth inhibition, 48 h
Here the recorded TGI is given for each entry.

What value of measured TGI is listed for CSC1=NC(C(N)=O)C(N)N1C (stereo not drawn) ? > 100 µM

Lookup "C1=Nc2sc3c(c2C2=NCCN12)CCCC3" 30.1 µM

Lookup "O=C1/C(=C/c2ccc(Cl)cc2)N=C(c2ccccc2)N1c1nc2ccccc2s1" > 100 µM

Lookup "O=c1cc(N2CCNCC2)oc2c(-c3ccccc3)cccc12" > 100 µM

Lookup O=C(CC(C(=O)c1ccco1)c1cccs1)c1cccs1 (stereo not drawn) > 100 µM
